experiment: PK assay in rat (IV and PO); format: in vivo; conditions: plasma, SD rats, PO 5 mg/kg, read-out: Tmax po (time of maximum observed plasma concentration)
Readout Label: Tmax (h)

Some entries whose results are on file:
Prompt: Endpoint output: Tmax of COc1cc2nccc(Oc3cnc(NC(=O)c4nn(C5CCOCC5)cc(-c5ccc(C)cc5)c4=O)nc3)c2cc1OC . Value?
Response: 0.5

Prompt: Record request: Tmax value, item COc1cc2nccc(Oc3ccc(NC(=O)c4nn(C5CCOCC5)cc(-c5ccc(C)cc5)c4=O)nc3)c2cc1OC
Response: 6

Prompt: Returns the measured Tmax for the input compound. Input: COc1cc2nccc(Oc3ccc(NC(=O)c4nn(CC5CCOCC5)cc(-c5ccc(C)cc5)c4=O)nc3)c2cc1OC
Response: 4

Prompt: Data request, read-out Tmax, for COc1cc2nccc(Oc3ccc(NC(=O)c4cn(C5CCOCC5)cc(-c5ccc(C)cc5)c4=O)nc3)c2cc1OC
Response: 1

(a) COc1cc2nccc(Oc3ccc(NC(=O)c4cc(-c5ccc(C)cc5)cn(CC5CCOCC5)c4=O)nc3)c2cc1OC
(b) COc1cc2nccc(Oc3ccc(NC(=O)c4nn(C5CCOCC5)cc(-c5ccc(F)cc5)c4=O)nc3)c2cc1OC
Prompt: Kindly compare a with b and tell me which has the lower Tmax figure. State the label of the item chosen.
Response: a
